Target: recombinant thioredoxin reductase 1 (TrxR1) (Homo sapiens)
Sequence (Q16881 151-649 limits assumed): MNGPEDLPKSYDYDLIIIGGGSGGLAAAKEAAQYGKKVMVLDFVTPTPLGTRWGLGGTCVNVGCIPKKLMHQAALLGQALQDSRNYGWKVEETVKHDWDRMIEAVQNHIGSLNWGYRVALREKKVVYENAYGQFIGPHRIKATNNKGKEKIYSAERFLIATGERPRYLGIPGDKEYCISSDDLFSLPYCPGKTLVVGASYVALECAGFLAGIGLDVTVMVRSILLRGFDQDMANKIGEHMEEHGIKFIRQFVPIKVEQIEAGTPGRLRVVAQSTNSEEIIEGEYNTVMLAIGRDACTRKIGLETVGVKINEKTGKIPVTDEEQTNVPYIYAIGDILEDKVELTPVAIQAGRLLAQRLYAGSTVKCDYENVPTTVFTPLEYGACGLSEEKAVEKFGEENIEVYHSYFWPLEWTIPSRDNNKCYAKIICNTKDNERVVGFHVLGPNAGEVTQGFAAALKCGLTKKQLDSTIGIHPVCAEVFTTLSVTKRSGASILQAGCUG
Assay: Inhibition of recombinant TrxR1 (DTNB assay)
Format: biochemical
Conditions: Biological Example 4; read-out: TrxR inhibition (IC50)
Method: Small molecule inhibition of recombinant thioredoxin reductase 1 (TrxR1) and gluthathione reductase (GR) was examined in 96-well plate format. […] Percent activity was determined using DMSO vehicle and no TrxR1 (blank) controls. […] Percent activity was determined using DMSO vehicle and no GR (blank) controls.
Counter-ions that a name gives are not always drawn.
Readout Type: pIC50
Give bare numbers, as −log10 of the molar value.

Recorded results for 2 compounds are shown here.
>  <Compound>
Cc1ccc(S(=O)(=O)c2nc(Cl)ccc2[N+](=O)[O-])cc1

>  <Readout Type>
pIC50

>  <Assay Result>
7.40

$$$$
>  <Compound>
O=[N+]([O-])c1ccc(Cl)nc1S(=O)(=O)c1ccc(Cl)cc1

>  <Readout Type>
pIC50

>  <Assay Result>
7.80

$$$$

Moving on to the next compound.
**Query** Give pIC50 for Cc1ccc(S(=O)(=O)c2ncccc2[N+](=O)[O-])cc1 [Example 3, 3-Nitro-2-tosylpyridine Hydrochloride] tested on recombinant thioredoxin reductase 1 (TrxR1) (Homo sapiens).
**Result** 6.66
